Below, each of the compounds is paired with its reported combination Emax value.
Tested on: LB831-BLC (Bladder Carcinoma)
experimentNotes: combination Emax (second highest fraction inhibited in the dose matrix, 72 h); higher = more inhibition; extreme values may be limits of the assay

{"columns": ["compound", "combination Emax"],
 "data": [
  ["CC1(C)CCC(CN2CCN(c3ccc(C(=O)NS(=O)(=O)c4ccc(NCC5CCOCC5)c([N+](=O)[O-])c4)c(Oc4cnc5[nH]ccc5c4)c3)CC2)=C(c2ccc(Cl)cc2)C1 [Venetoclax] + COc1cc(Nc2ncc3c(n2)-c2ccc(Cl)cc2C(c2c(F)cccc2OC)=NC3)ccc1C(=O)O [Alisertib] (first compound max 1 µM, 7x7, partner max 10 µM)", 0.456],
  ["Cc1c2c(nn1C)CSCc1cc(n(C)n1)CSc1cc(c3ccccc3c1)OCCCc1c(C(=O)O)n(C)c3c-2c(Cl)ccc13 [AZD5991] + CN(C)CCCOc1ccc(-c2ccc3ncc4c(c3c2)n(C2CCOCC2)c(=O)n4C)cn1 [AZD0156] (first compound max 1 µM, 7x7, partner max 1 µM)", 0.229],
  ["C=CCn1c(=O)c2cnc(Nc3ccc(N4CCN(C)CC4)cc3)nc2n1-c1cccc(C(C)(C)O)n1 [AZD1775] + O=C(c1cc(Cc2n[nH]c(=O)c3ccccc23)ccc1F)N1CCN(C(=O)C2CC2)CC1 [Olaparib] (first compound max 1 µM, partner max 10 µM)", 0.607]
]}

---

Test system: COLO-205 (Colorectal Carcinoma)
experimentNotes: combination Emax (second highest fraction inhibited in the dose matrix, 72 h); higher = more inhibition; extreme values may be limits of the assay
measurementType: combination Emax

{"columns": ["molecule", "measurementType", "endpointValue"],
 "data": [
  ["CN(CCO)CC[C@H](CSc1ccccc1)Nc1ccc(S(=O)(=O)NC(=O)c2ccc(N3CCC([C@@H](O)c4ccccc4-c4ccc(Cl)cc4)CC3)cc2)cc1S(=O)(=O)C(F)(F)F [AZD4320] + C=CCn1c(=O)c2cnc(Nc3ccc(N4CCN(C)CC4)cc3)nc2n1-c1cccc(C(C)(C)O)n1 [AZD1775] (first compound max 1 µM, partner max 1 µM)", "combination Emax", 0.902],
  ["CC1(C)CCC(CN2CCN(c3ccc(C(=O)NS(=O)(=O)c4ccc(NCC5CCOCC5)c([N+](=O)[O-])c4)c(Oc4cnc5[nH]ccc5c4)c3)CC2)=C(c2ccc(Cl)cc2)C1 [Venetoclax] + CN(C)CCCOc1ccc(-c2ccc3ncc4c(c3c2)n(C2CCOCC2)c(=O)n4C)cn1 [AZD0156] (first compound max 1 µM, 7x7, partner max 1 µM)", "combination Emax", 0.237],
  ["CC(=O)c1c(C)c2cnc(Nc3ccc(N4CCNCC4)cn3)nc2n(C2CCCC2)c1=O [Palbociclib] + Cn1cnc2c(F)c(Nc3ccc(Br)cc3Cl)c(C(=O)NOCCO)cc21 [Selumetinib] (first compound max 10 µM, 7x7, partner max 10 µM)", "combination Emax", 0.788]
]}

---

Test system: OVCA420 (Ovarian Carcinoma);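 also: after 72 h of two-drug dosing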
experimentNotes: Bliss excess, mean over the matrix (fraction); higher = more synergy
Below, each of the compounds is paired with its reported Bliss excess value.

{"columns": ["compound", "Bliss excess"],
 "data": [
  ["COc1cccc(OCCCN)c1-c1cc(Nc2cnc(C#N)cn2)n[nH]1 [Prexasertib] + C=CCn1c(=O)c2cnc(Nc3ccc(N4CCN(C)CC4)cc3)nc2n1-c1cccc(C(C)(C)O)n1 [AZD1775] (first compound max 1 µM, partner max 1 µM)", 0.0044],
  ["CC1(C)CCC(CN2CCN(c3ccc(C(=O)NS(=O)(=O)c4ccc(NCC5CCOCC5)c([N+](=O)[O-])c4)c(Oc4cnc5[nH]ccc5c4)c3)CC2)=C(c2ccc(Cl)cc2)C1 [Venetoclax] + Cc1cc2ncnn2cc1Nc1ncc2c(n1)n(C1CCOCC1)c(=O)n2C [AZD7648] (first compound max 1 µM, 7x7, partner max 10 µM)", -0.0089],
  ["COc1cccc(OCCCN)c1-c1cc(Nc2cnc(C#N)cn2)n[nH]1 [Prexasertib] + CN(C)CCCOc1ccc(-c2ccc3ncc4c(c3c2)n(C2CCOCC2)c(=O)n4C)cn1 [AZD0156] (first compound max 1 µM, 7x7, partner max 1 µM)", -0.0279],
  ["NC1(C(=O)N[C@@H](CCO)c2ccc(Cl)cc2)CCN(c2ncnc3[nH]ccc23)CC1 [Capivasertib] + CC(=O)c1c(C)c2cnc(Nc3ccc(N4CCNCC4)cn3)nc2n(C2CCCC2)c1=O [Palbociclib] (first compound max 10 µM, 7x7, partner max 10 µM)", 0.0261]
]}

---

Tested on: KP-1N (Pancreatic Carcinoma)
experimentNotes: combination Emax (second highest fraction inhibited in the dose matrix, 72 h); higher = more inhibition; extreme values may be limits of the assay
Below, each of the compounds is paired with its reported combination Emax value.
measurementType: combination Emax

{"columns": ["compound", "system", "measurementType", "endpointValue"],
 "data": [
  ["COc1nnc2ccc(N3CCC(c4ccc(OCCN5CCN(C)C(=O)[C@H]5C)cc4)CC3)nn12 [AZD5153] + C[C@@H]1COCCN1C2=NC(=NC(=C2)C3(CC3)[S@](=N)(=O)C)C4=C5C=CNC5=NC=C4 [AZD6738] (first compound max 1 µM, 7x7, partner max 10 µM)", "KP-1N (Pancreatic Carcinoma)", "combination Emax", 0.69],
  ["CC(=O)c1c(C)c2cnc(Nc3ccc(N4CCNCC4)cn3)nc2n(C2CCCC2)c1=O [Palbociclib] + Cc1c2c(nn1C)CSCc1cc(n(C)n1)CSc1cc(c3ccccc3c1)OCCCc1c(C(=O)O)n(C)c3c-2c(Cl)ccc13 [AZD5991] (first compound max 10 µM, 7x7, partner max 1 µM)", "KP-1N (Pancreatic Carcinoma)", "combination Emax", 0.212],
  ["CN(C)CCCOc1ccc(-c2ccc3ncc4c(c3c2)n(C2CCOCC2)c(=O)n4C)cn1 [AZD0156] + CCN(CCO)CCCOc1ccc2c(Nc3cc(CC(=O)Nc4cccc(F)c4)[nH]n3)ncnc2c1 [AZD2811] (first compound max 1 µM, 7x7, partner max 1 µM)", "KP-1N (Pancreatic Carcinoma)", "combination Emax", 0.293],
  ["NC1(C(=O)N[C@@H](CCO)c2ccc(Cl)cc2)CCN(c2ncnc3[nH]ccc23)CC1 [Capivasertib] + CC(=O)c1c(C)c2cnc(Nc3ccc(N4CCNCC4)cn3)nc2n(C2CCCC2)c1=O [Palbociclib] (first compound max 10 µM, 7x7, partner max 10 µM)", "KP-1N (Pancreatic Carcinoma)", "combination Emax", 0.451],
  ["C[C@@H](c1ccc2nccn2c1)n1nnc2ncc(-c3cnn(C)c3)nc21 [Savolitinib] + Cc1c2c(nn1C)CSCc1cc(n(C)n1)CSc1cc(c3ccccc3c1)OCCCc1c(C(=O)O)n(C)c3c-2c(Cl)ccc13 [AZD5991] (first compound max 1 µM, 7x7, partner max 1 µM)", "KP-1N (Pancreatic Carcinoma)", "combination Emax", 0.194],
  ["C=CCn1c(=O)c2cnc(Nc3ccc(N4CCN(C)CC4)cc3)nc2n1-c1cccc(C(C)(C)O)n1 [AZD1775] + O=C(c1cc(Cc2n[nH]c(=O)c3ccccc23)ccc1F)N1CCN(C(=O)C2CC2)CC1 [Olaparib] (first compound max 1 µM, partner max 10 µM)", "KP-1N (Pancreatic Carcinoma)", "combination Emax", 0.359],
  ["CC(=O)c1c(C)c2cnc(Nc3ccc(N4CCNCC4)cn3)nc2n(C2CCCC2)c1=O [Palbociclib] + CN(CC[C@H](CSC1=CC=CC=C1)NC2=C(C=C(C=C2)S(=O)(=O)NC(=O)C3=CC=C(C=C3)N4CCC(CC4)[C@H](C5=CC=CC=C5C6=CC=C(C=C6)Cl)O)S(=O)(=O)C(F)(F)F)CCO [AZD4320] (first compound max 10 µM, 7x7, partner max 1 µM)", "KP-1N (Pancreatic Carcinoma)", "combination Emax", 0.27],
  ["CC1(C)CCC(CN2CCN(c3ccc(C(=O)NS(=O)(=O)c4ccc(NCC5CCOCC5)c([N+](=O)[O-])c4)c(Oc4cnc5[nH]ccc5c4)c3)CC2)=C(c2ccc(Cl)cc2)C1 [Venetoclax] + CCN(CCO)CCCOc1ccc2c(Nc3cc(CC(=O)Nc4cccc(F)c4)[nH]n3)ncnc2c1 [AZD2811] (first compound max 1 µM, 7x7, partner max 1 µM)", "KP-1N (Pancreatic Carcinoma)", "combination Emax", 0.162],
  ["COc1nnc2ccc(N3CCC(c4ccc(OCCN5CCN(C)C(=O)[C@H]5C)cc4)CC3)nn12 [AZD5153] + Cn1cnc2c(F)c(Nc3ccc(Br)cc3Cl)c(C(=O)NOCCO)cc21 [Selumetinib] (first compound max 1 µM, 7x7, partner max 10 µM)", "KP-1N (Pancreatic Carcinoma)", "combination Emax", 0.563],
  ["CN(CCO)CC[C@H](CSc1ccccc1)Nc1ccc(S(=O)(=O)NC(=O)c2ccc(N3CCC([C@@H](O)c4ccccc4-c4ccc(Cl)cc4)CC3)cc2)cc1S(=O)(=O)C(F)(F)F [AZD4320] + C1CN(CCC1(C(=O)N[C@@H](CCO)C2=CC=C(C=C2)Cl)N)C3=NC=NC4=C3C=CN4 [Capivasertib] (first compound max 1 µM, 7x7, partner max 3 µM)", "KP-1N (Pancreatic Carcinoma)", "combination Emax", 0.0744],
  ["C[C@@H](c1ccc2nccn2c1)n1nnc2ncc(-c3cnn(C)c3)nc21 [Savolitinib] + CN(CC[C@H](CSC1=CC=CC=C1)NC2=C(C=C(C=C2)S(=O)(=O)NC(=O)C3=CC=C(C=C3)N4CCC(CC4)[C@H](C5=CC=CC=C5C6=CC=C(C=C6)Cl)O)S(=O)(=O)C(F)(F)F)CCO [AZD4320] (first compound max 1 µM, 7x7, partner max 1 µM)", "KP-1N (Pancreatic Carcinoma)", "combination Emax", 0.175],
  ["Cc1c2c(nn1C)CSCc1cc(n(C)n1)CSc1cc(c3ccccc3c1)OCCCc1c(C(=O)O)n(C)c3c-2c(Cl)ccc13 [AZD5991] + CCN(CCO)CCCOc1ccc2c(Nc3cc(CC(=O)Nc4cccc(F)c4)[nH]n3)ncnc2c1 [AZD2811] (first compound max 1 µM, 7x7, partner max 1 µM)", "KP-1N (Pancreatic Carcinoma)", "combination Emax", 0.234],
  ["COc1cccc(OCCCN)c1-c1cc(Nc2cnc(C#N)cn2)n[nH]1 [Prexasertib] + Cc1cc2ncnn2cc1Nc1ncc2c(n1)n(C1CCOCC1)c(=O)n2C [AZD7648] (first compound max 1 µM, 7x7, partner max 10 µM)", "KP-1N (Pancreatic Carcinoma)", "combination Emax", 0.246]
]}
